Tested on: SK-MEL-5 melanoma
Test: NCI tumour cell line growth inhibition, 48 h
Value type: TGI

* C#CCn1c(=O)c(C#N)c(O)c2cc3ccccc3nc21 | > 100 µM

What value of TGI has been reported for the following molecule? O=C1Nc2cccc3cc(NCC(O)CCl)cc1c23 (stereo not drawn)
> 100 µM

Quick one: TGI for COc1ccccc1Nc1nc(NNC(=O)Cc2ccccc2)nc(NNC(=O)c2ccncc2)n1 ?
> 10 µM

Could you share which TGI value was measured for O=Cc1ccc(-c2cccs2)s1 ?
> 88.9 µM

Which value of TGI has been reported for O=C1CCC(O)=C1O in the records?
> 100 µM

TGI lookup needed for CSc1c(C#N)c2n(c3ccccc13)c1ccccc1[n+]2C , thanks.
26.7 µM

Value lookup for TGI; key = COC(=O)C1(Cc2ccccc2)Cc2ccccc2C1
31.9 µM

I would be grateful if you could share the reported TGI for COc1cc(C2S/C(=C/c3ccccc3)C(=O)N2c2ccc(Cl)c(Cl)c2)cc(OC)c1OC (stereo not drawn) .
> 100 µM

Value lookup for TGI; key = CCOC(=O)C(CS)NC(=O)CCCCCCCC(=O)NC(CS)C(=O)OCC (stereo not drawn)
> 100 µM

Form field: reported TGI of COc1cc2c(cc1OC)-c1c3c(cc4c1[C@@H](C2)N(C)CC4)OCO3
19.3 µM

Any idea what TGI was measured for O=C1/C(=C2\Sc3c(ccc(Cl)c3Cl)C2=O)Sc2c1ccc(Cl)c2Cl ?
> 100 µM

If you can, please state the reported TGI value of CC(=O)O[C@@H]1C2C(=O)OC(=O)C2C2CCC[C@]23O[C@H]13 (stereo partly drawn) .
> 100 µM

I would be grateful if you could share the reported TGI for Cc1c2ccc(N(C)c3ccnc(Nc4cccc(S(N)(=O)=O)c4)n3)cc2nn1C .
> 17.1 µM

// TGI lookup, key: COC1CC(OC(=O)c2ccccc2)C(OC(=O)c2ccccc2)C(C)O1 (stereo not drawn)
> 100 µM
